# target of assay: UniProt Q9UBT2
# assay overview: SUMO activity (Table I, biological activities)
# Format: biochemical
# Parameters: key: + (less active); ++ (active); +++ (most active)
readout label: SUMO

Use the examples below as a reference point.
CCOC(=O)C1=C(C(=O)Nc2ccc(C)c(F)c2)C2C=CC1(C(Oc1ccc(F)cc1)c1ccc(CN3CCOCC3)cc1)O2 (stereo not shown)	+
COC(=O)C1=C(C(=O)NC2CCN(C)C2)C2C=CC1(C(Cc1ccccc1)Nc1cc(F)cc(F)c1)O2 (stereo not shown)	++
CNC(=O)C1=C(C(=O)OC)C2(C(Cc3ccccc3)Nc3ccccc3)C=CC1(C)O2 (stereo not shown)	++
COC(=O)C1=C(C(=O)NNc2cc(C(F)(F)F)cc(C(F)(F)F)c2)C2(C(Cc3ccccc3)Nc3cc(F)cc(F)c3)C=CC1O2 (stereo not shown)	++
COC(=O)C1=C(C(=O)OC)C2(C(Cc3ccccc3)N(C)c3c(F)cccc3F)C=CC1O2 (stereo not shown)	+
COC(=O)C1=C(C(=O)OC)C2(C(Cc3ccccc3Cl)Oc3ccccc3)C=CC1O2 (stereo not shown)	+

Continue with the next compound.
Challenge: # get_value(readout='SUMO', item= COC(=O)C1=C(C(=O)OC)C2(C(Cc3ccc(C)cc3)Nc3ccccc3)C=CC1O2 (stereo not shown) )
Response given: +++

----------
# target of assay: SUMO (Homo sapiens)
# Sequence (Q9UBT2 whole entry): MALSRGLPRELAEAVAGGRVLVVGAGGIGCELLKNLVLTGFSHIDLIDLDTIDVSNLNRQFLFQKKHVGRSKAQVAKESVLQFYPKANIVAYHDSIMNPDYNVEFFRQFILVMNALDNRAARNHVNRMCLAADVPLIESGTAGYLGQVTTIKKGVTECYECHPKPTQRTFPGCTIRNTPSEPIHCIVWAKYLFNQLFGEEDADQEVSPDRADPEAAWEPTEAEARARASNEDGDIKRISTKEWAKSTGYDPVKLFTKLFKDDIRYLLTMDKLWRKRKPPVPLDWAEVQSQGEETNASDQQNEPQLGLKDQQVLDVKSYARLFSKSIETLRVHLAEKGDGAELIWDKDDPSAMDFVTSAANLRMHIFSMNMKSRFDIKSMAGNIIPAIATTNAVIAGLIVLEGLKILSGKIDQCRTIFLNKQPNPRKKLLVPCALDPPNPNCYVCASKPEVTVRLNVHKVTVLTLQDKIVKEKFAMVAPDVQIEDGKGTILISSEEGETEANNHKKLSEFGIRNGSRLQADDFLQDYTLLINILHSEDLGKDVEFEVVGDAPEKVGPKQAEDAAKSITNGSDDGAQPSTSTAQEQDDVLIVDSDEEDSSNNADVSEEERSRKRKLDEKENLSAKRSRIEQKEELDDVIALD
# Sequence (Q9UBE0 whole entry partner): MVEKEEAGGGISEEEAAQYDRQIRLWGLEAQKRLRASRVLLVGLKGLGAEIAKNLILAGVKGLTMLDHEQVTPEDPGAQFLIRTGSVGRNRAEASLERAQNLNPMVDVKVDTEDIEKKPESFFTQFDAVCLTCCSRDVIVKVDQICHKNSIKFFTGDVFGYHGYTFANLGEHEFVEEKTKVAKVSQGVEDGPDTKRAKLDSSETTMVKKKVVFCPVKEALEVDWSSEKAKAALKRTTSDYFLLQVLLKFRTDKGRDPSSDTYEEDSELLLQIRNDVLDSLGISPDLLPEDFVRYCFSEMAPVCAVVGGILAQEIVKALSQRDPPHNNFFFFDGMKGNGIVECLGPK
# assay overview: SUMO activity (Table I, biological activities)
# Format: biochemical
# Design: key: + (less active); ++ (active); +++ (most active)
readout label: SUMO

Use the examples below as a reference point.
COC(=O)C1=C(C(=O)NCCN2CCOCC2)C2C=CC1(C(Cc1ccccc1)Nc1ccccc1)O2 (stereo not shown) [Compound 222]	+++
CCc1ccc(CC(Nc2ccccc2)C23C=CC(O2)C(C(=O)OC)=C3C(=O)OC)cc1 (stereo not shown) [Compound 655]	++
COC(=O)C1=C(C(=O)Nc2ccc(CN3CCN(C)CC3)cc2)C2C=CC1(C(Cc1ccccc1)Nc1ccccc1)O2 (stereo not shown) [Compound 504]	++
COC(=O)C1=C(C(=O)NC2CCN(C(=O)c3ccsc3)CC2)C2C=CC1(C(Cc1ccccc1)Nc1ccccc1)O2 (stereo not shown) [Compound 383]	++
CCOC(=O)C1=C(C(=O)NCCN2CCCC2)C2C=CC1(C(Cc1ccccc1)Nc1ccccc1)O2 (stereo not shown) [Compound 564]	++

Challenge: # get_value(readout='SUMO', item= CC(=O)C1=CC2(C(Cc3ccccc3)Nc3ccccc3)C=CC1(C)O2 (stereo not shown) [Compound 527] )
Response given: +

Challenge: # get_value(readout='SUMO', item= COC(=O)CNC(=O)C1=C(C(=O)OC)C2(C(Cc3ccccc3)Nc3cc(F)cc(F)c3)C=CC1O2 (stereo not shown) [Compound 245] )
Response given: +++

----------
# target of assay: SUMO (Homo sapiens)
# assay overview: SUMO activity (Table I, biological activities)
# Type: biochemical
# Design: key: + (less active); ++ (active); +++ (most active)
readout label: SUMO

COC(=O)C1=C(C(=O)OC)C2(C(Cc3ccccc3)Oc3cccnc3)C=CC1O2 (centres unmarked)	+
Cc1ccc(S(=O)(=O)C2=CC3(C(Cc4ccccc4)Nc4ccccc4)C=CC2(C)O3)cc1 (centres unmarked)	+
CNC(=O)C1=C(C(=O)Nc2ccccc2)C2C=CC1(C(Cc1ccccc1)Nc1ccccc1)O2 (centres unmarked)	+
C=CC(C)(C)C(Nc1ccccc1)C12C=CC(O1)C(C(=O)OC)=C2C(=O)OC (centres unmarked)	++
COC(=O)C1=C(C(=O)OC)C2(C(Cc3ccc(Cl)cc3)Nc3cc(F)cc(F)c3)C=CC1O2 (centres unmarked)	++

Challenge: # get_value(readout='SUMO', item= COC(=O)C1=C(C(=O)OC)C2(C(Cc3ccc(C#N)cc3)Nc3ccccc3)C=CC1O2 (centres unmarked) )
Response given: ++

Challenge: # get_value(readout='SUMO', item= COC(=O)C1=C(C(=O)NNc2ccccc2)C2C=CC1(C(Cc1ccccc1)Nc1ccccc1)O2 (centres unmarked) )
Response given: ++

Challenge: # get_value(readout='SUMO', item= COC(=O)C1=C(C(=O)OC)C2(C(Cc3ccc(Br)cc3)Nc3ccccc3)C=CC1O2 (centres unmarked) )
Response given: ++
